Target: HLA-A*6601 (Homo sapiens, UniProt P04439, A114D/A173T/A270S/D185E/E277Q/E87N/F33Y/G231S/I121R/I218V/K168Q/L180W/L300P/L318F/P208A/P217A/Q86R/R138Q/S129P/T187R/T323A/T345S/V358M)
Test Description: Competitive peptide-binding assay, purified HLA-A*6601
Peptide text beside a SMILES is read from it.
Reported pIC50 values for the following compounds.
Scale: negative log10 of molar concentration, which is what pIC50 denotes.

Compound: CC[C@H](C)[C@H](NC(=O)[C@H](C)N)C(=O)N[C@@H](CC(N)=O)C(=O)N[C@@H](CO)C(=O)N[C@@H](CCC(=O)O)C(=O)N[C@@H](CCSC)C(=O)N[C@@H](Cc1ccccc1)C(=O)N[C@@H](CC(C)C)C(=O)N[C@@H](CC(C)C)C(=O)O [Human IGRP 272–280] (H-AINSEMFLL-OH)
Reported Endpoint: pIC50
Assay Value: 4.44

Which pIC50 is listed for CC(C)C[C@H](NC(=O)[C@H](C)NC(=O)[C@H](CC(C)C)NC(=O)[C@@H]1CCCN1)C(=O)N[C@@H](CCC(=O)O)C(=O)NCC(=O)N[C@@H](CO)C(=O)N[C@@H](CC(C)C)C(=O)N[C@@H](CCC(N)=O)C(=O)N[C@@H](CCCCN)C(=O)O [Human Ins C23-32] (H-PLALEGSLQK-OH) ?
4.31

Please look up its pIC50: CC(C)C[C@H](NC(=O)[C@H](C)NC(=O)[C@@H](N)CC(C)C)C(=O)N[C@@H](CCC(=O)O)C(=O)N[C@H](C(=O)N[C@@H](C)C(=O)N[C@@H](CCCNC(=N)N)C(=O)N[C@@H](CCC(N)=O)C(=O)N[C@@H](CCCCN)C(=O)N[C@@H](CCCNC(=N)N)C(=O)O)C(C)C [Mouse Ins1 C22-31] (H-LALEVARQKR-OH)
4.89
